system: Caspase-1; test: Caspase-1 gene expression (RT-qPCR); assay type: in vivo, rat; conditions: gene expression; AlCl3-induced AD rats; mean ± SE, n = 6
Measurement Name: Caspase-1

Examples with their reported Caspase-1 follow.
| Structure Smiles | Caspase-1 |
| --- | --- |
| O=C1CN(c2ccc(Cl)cc2)C(=O)c2c(sc3c2CCCCC3)O1 | 4.54 ± 0.090 ^abc |
| O=C1CN(c2ccc(O)cc2)C(=O)c2c(sc3c2CCCCC3)O1 | 2.94 ± 0.110 ^abc |

// each compound listed below needs its Caspase-1
1. CCOC(=O)c1c(O)sc2c1CCCCC2
2. CCOc1ccc(N2CC(=O)Oc3sc4c(c3C2=O)CCCCC4)cc1

["7.46 ± 0.120 ^abc", "5.08 ± 0.050 ^abc"]

----------
tested on: AlCl3-induced AD rat model; assay: Y-maze SAP test in AlCl3-induced AD rats; format: in vivo; conditions: mean ± SE, n = 6
Measurement Name: SAP%

| Molecule | Test System | Result |
| --- | --- | --- |
| CCOc1ccc(N2CC(=O)Oc3sc4c(c3C2=O)CCCCC4)cc1 | AlCl3-induced AD rat model | 77.5 ± 2.11 ^abc % |
| COc1ccc(N2CC(=O)Oc3sc4c(c3C2=O)CCCCC4)cc1 | AlCl3-induced AD rat model | 71.67 ± 1.15 ^abc % |
| O=C1CN(c2ccc(O)cc2)C(=O)c2c(sc3c2CCCCC3)O1 | AlCl3-induced AD rat model | 82.5 ± 0.89 ^abc % |
| CCOC(=O)c1c(OC(=O)CCl)sc2c1CCCCC2 | AlCl3-induced AD rat model | 72.67 ± 1.02 ^abc % |
| O=C1CN(c2ccc(Cl)cc2)C(=O)c2c(sc3c2CCCCC3)O1 | AlCl3-induced AD rat model | 76.5 ± 1.52 ^abc % |

Record SAP% for all entries; do not skip any.
1. O=C1CN(c2ccccc2)C(=O)c2c(sc3c2CCCCC3)O1
2. N#Cc1ccc(N2CC(=O)Oc3sc4c(c3C2=O)CCCCC4)cc1
3. CCOC(=O)c1c(O)sc2c1CCCCC2
4. COc1cc2c(cc1OC)C(=O)C(CC1CCN(Cc3ccccc3)CC1)C2 (stereo not drawn) [Donepezil, reference compound]

69.67 ± 1.69 ^abc %
82.67 ± 1.28 ^abc %
62.33 ± 1.05 ^abc %
85 ± 0.58 ^ab %

----------
Would you mind telling me the reported elevation of β-catenin levels of each entry?
system: β-catenin; assay: Brain β-catenin level; assay type: in vivo, rat; settings: AlCl3-induced AD rats
Answers are plain numbers, in fold.

| Structure Smiles | Test System | elevation of β-catenin levels (fold) |
| --- | --- | --- |
| CCOC(=O)c1c(O)sc2c1CCCCC2 | β-catenin | 2.7 |
| CCOc1ccc(N2CC(=O)Oc3sc4c(c3C2=O)CCCCC4)cc1 | β-catenin | 5.3 |
| O=C1CN(c2ccc(Cl)cc2)C(=O)c2c(sc3c2CCCCC3)O1 | β-catenin | 6.3 |
| O=C1CN(c2ccc(O)cc2)C(=O)c2c(sc3c2CCCCC3)O1 | β-catenin | 8.8 |

Consider now this further compound.
// map O=C1CN(c2ccccc2)C(=O)c2c(sc3c2CCCCC3)O1 to recorded elevation of β-catenin levels (system: β-catenin)
4.8
